Molecular target: vitamin D receptors (Mus musculus, UniProt P48281)
Construct: the skin treated is removed and the epidermis is separated from the dermis; from tissue; host or cells: epidermis of SKH mice (in vivo, topical application)
Sequence (P48281 1-422): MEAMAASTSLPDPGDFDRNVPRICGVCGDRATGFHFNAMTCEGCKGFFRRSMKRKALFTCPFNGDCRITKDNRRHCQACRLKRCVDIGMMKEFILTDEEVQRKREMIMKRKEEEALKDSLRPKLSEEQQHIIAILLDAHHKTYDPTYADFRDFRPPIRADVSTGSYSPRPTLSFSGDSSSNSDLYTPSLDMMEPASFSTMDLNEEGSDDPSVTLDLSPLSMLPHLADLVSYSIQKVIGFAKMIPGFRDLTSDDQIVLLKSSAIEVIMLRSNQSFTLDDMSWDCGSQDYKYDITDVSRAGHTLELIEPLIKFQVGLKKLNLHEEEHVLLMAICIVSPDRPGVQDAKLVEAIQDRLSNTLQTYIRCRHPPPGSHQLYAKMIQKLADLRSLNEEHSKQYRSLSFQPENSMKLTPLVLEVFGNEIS
Assay: Induction of 24-Hydroxylase mRNA in the epidermis of SKH mice after a single topical application (semiquantitative PCR)
Assay type: in vivo
Details: concentration 0.1 % (weight/volume) in ethanol, single topical application of 50 μl to the back, epidermis 8 hours after application, normalized to GAPDH mRNA
Description: The test protocol used is the following: SKH mice receive a single topical application of a compound according to the invention in solution in ethanol in increasing concentrations. […] 8 hours after the topical application, the mice are humanely killed, the skin treated is removed and the epidermis is separated from the dermis. The quantification of the mRNA for 24-Hydroxylase is carried out by semiquantitative PCR.
OBSERVABLE: Expression of the mRNA for 24-Hydroxylase: Induction factor versus ethanol

- COMPOUND: "CCC(O)(CC)CC/C=C(\\C)c1cccc(OCc2ccc(CO)c(CO)c2)c1 [Example 72]"
  VALUE: 17
- COMPOUND: "CCC(O)(/C=C/C=C(\\C)c1cccc(COc2ccc(CO)c(CO)c2)c1)CC [Example 82]"
  VALUE: 21
- COMPOUND: "CC/C(=C\\C=C\\C(O)(CC)CC)c1cccc(OCc2ccc(CO)c(CO)c2)c1 [Example 68]"
  VALUE: 25
- COMPOUND: "CCC(O)(/C=C/C=C(\\C)c1cccc(CCc2ccc(CO)c(CO)c2)c1)CC [Example 59]"
  VALUE: 20.5

The origin of these recorded values is patent US6689922B1.
